Assay: yeast display, Sf9 membrane polyspecificity reagent, FACS + sequencing; frameworks hold sequencing errors
Property Label: polyreactivity (PSR sort gate)

Examples from the recorded data:
stdin: Look at this sequence and give its reported polyreactivity (PSR sort gate). QVQLVESGVGLVQAGGSLRLSCAASGIIFASNGMGWYRQAPGKERELVAAISSGGSTNYADSVKGRFTISRDNAKNTVYLQMNSLKPEDTAVYYCAADRWNREYDYWGQGTQVTVSS
stdout: low polyreactivity

stdin: Field request: polyreactivity (PSR sort gate) | item: QVQLVESGAGLVQAGGSLRLSCAASGYTFSPNDMGWYRQAPGKERELVAAITSSVGSTYYADSVKGRFTISRDNAKNTVYLQMNSLKPEDTAVYYCNKQDSSYYISGGGDYDYWGQGTQVTVSS
stdout: low polyreactivity

stdin: Given QVQLVESGGGLVQAGGSLRLSCAASGFTSNYYAMGWYRQAPGKERELVAAITTGGSTHYADSVKGRFTISRDNAKNTVYLQMNSLKPEDTAVYYCAAGTNRQQQRYFHHGGYYQYNYWGQGTQVTVSS , state its recorded polyreactivity (PSR sort gate).
stdout: low polyreactivity

stdin: Form field: reported polyreactivity (PSR sort gate) of QVQLVESGGGLVQAGGSLRLSCDASGIIFFIYTMGWYRQAPGKERELVAVITRGGRTKYADSVKGRLTISRDNAKNTVFLQMNRLNPEDNAVYYCAAKGSRSYYWGQGTHVTVSS
stdout: low polyreactivity

stdin: Quick one: polyreactivity (PSR sort gate) of QDQLVESGGGLVQAGGSLRLSCAASGRTFHKYAMGWSRQAPGKEMELVAAITGSGVRTYYADSVKGRFTISRDNAKNTVYLQMNSLKPEDTAVYYGNADSYNRNGDYWGQGTQVTVSS ?
stdout: high polyreactivity

stdin: polyreactivity (PSR sort gate) lookup needed for HDQLVETGGGLVQAGGSLRLSCAASGFTFRAYAMGWYRQAPGKEREFVAAISRRGGSTSYADSVKGRFTISRDNAKNTVYLQMNSLKPEDTAVYYCAATYQILTTSAHDSWGQGTQVTVSS , thanks.
stdout: high polyreactivity

stdin: Give its polyreactivity (PSR sort gate) value. Item: QVQLVESGGGIVQAGGSLRLSCAASGSIFVTNTMVWYRQAPGKERELVAAISYRGGSTYADSVKGRFTISRDNAKNTVYLQMNSLKPEDTAVYYCAADDLSFVGYYYGYVDDVYCGQGTQVTVSS
stdout: high polyreactivity

stdin: # get_value(readout='polyreactivity (PSR sort gate)', item= QVQLVESGGGLVQAGGSLRLSCAASGGTFAEYVMGRYRQAPGKERELVAAIDWSGGSTYYADSVKGRFTISRDNAKNTVYFQMNSLKPEDTALYYCAKGPGYGFYKLMSYDSWGQGTQVTVSS )
stdout: low polyreactivity

stdin: Could you share which polyreactivity (PSR sort gate) value was measured for QVQLVESGGGLVQARGSLRLSCAASGITFGRNTMGWYRQAPGKERELVAAIDSGGNTYADSVKGRFTISRDNAKNTVYLQMNSLKPDDTAVYYCAVDGGEFSSYGYWGQGTQVTVSS ?
stdout: low polyreactivity

stdin: polyreactivity (PSR sort gate) lookup needed for QVQLVESGGGLVQAGGSLRFSCAASGSIFDYNAMGWYRQAPGKERELVAAIDWSGSSTYYADSVKGRFTISRDNAKNTVYLQMNSLKPEDTAVYYCNALAYYGMDYWGQGTQVTVSS , thanks.
stdout: low polyreactivity

Okay, now this sequence:
stdin: Give its polyreactivity (PSR sort gate) value. Item: HVQLVESVGGLVQAGGSLRLRCAASGSIFYRNAMGWYRKAPGKERELVAAISSDGSTNYADSVKGRFTISRDNAKNSVYFQMNSLKPEDTAVYYCAAPWTQILDYWGQGTQVTVSS
stdout: low polyreactivity

Origin of values: the nanobody polyreactivity screen of Harvey et al. (2022)
